Assay: physchem
Settings: pH 4, aqueous buffer, thermodynamic from solid
reported.property: solubility

- compound: "CCCCCCCCCCCCC(C)(C)C(=O)OC[N+]1(C)CCN(C2=Nc3ccccc3Nc3sc(C)cc32)CC1.[I-] [Compound 18]"
  result: "0.1 to 0.2 ng/mL"
